System: A. baumannii JMI7
Assay: In vitro antimicrobial activity, MIC by broth microdilution (CLSI)
Format: cell-based
Details: Acinetobacter baumannii, JMI7; PER-1, OXA-23, 51, ESBL and OXA-type carbapenemase producing strain; 5×10^5 cfu/mL; cation-adjusted Iso-Sensitest broth containing human Apo-transferrin; read-out: Minimum Inhibitory Concentration (MIC) A. baumannii JMI:7
Quantity Name: MIC (µg/mL)

[[record]]
compound = "C[C@@H]1S[C@@H]2[C@H](NC(=O)/C(=N\\OC(C)(C)C(=O)[O-])c3csc(N)n3)C(=O)N2C(C(=O)O)=C1C[N+]1(CCNC(=O)c2cn(C3CC3)c3cc(O)c(O)c(Cl)c3c2=O)CCCC1"
system_name = "A. baumannii JMI7"
measured_value = 0.5

[[record]]
compound = "C[C@@H]1S[C@@H]2[C@H](NC(=O)/C(=N\\OC(C)(C)C(=O)[O-])c3csc(N)n3)C(=O)N2C(C(=O)[O-])=C1C[N@+]12CCC[C@H]1CN(C(=O)C(=O)c1cc(O)c(O)c(Cl)c1)CC2.[Na+]"
system_name = "A. baumannii JMI7"
measured_value = 1

[[record]]
compound = "C[C@@H]1S[C@@H]2[C@H](NC(=O)/C(=N\\OC(C)(C)C(=O)[O-])c3csc(N)n3)C(=O)N2C(C(=O)[O-])=C1C[N+]1(C)[C@@H]2CC[C@H]1C[C@@H](NC(=O)c1cc(O)c(O)c(Cl)c1)C2.[Na+] (stereo partly drawn)"
system_name = "A. baumannii JMI7"
measured_value = 0.25

[[record]]
compound = "C[C@@H]1S[C@@H]2[C@H](NC(=O)/C(=N\\OC(C)(C)C(=O)[O-])c3csc(N)n3)C(=O)N2C(C(=O)O)=C1C[N+]1(CCN2C(=O)c3ccc(O)c(O)c3C2=O)CCCC1"
system_name = "A. baumannii JMI7"
measured_value = 2

[[record]]
compound = "C[C@@H]1S[C@@H]2[C@H](NC(=O)/C(=N\\OC(C)(C)C(=O)[O-])c3csc(N)n3)C(=O)N2C(C(=O)O)=C1C[N@+]12CCC[C@H]1CN(C(=O)c1ccc(O)c(O)c1Cl)CC2"
system_name = "A. baumannii JMI7"
measured_value = 1

[[record]]
compound = "C[C@@H]1S[C@@H]2[C@H](NC(=O)/C(=N\\OC(C)(C)C(=O)[O-])c3csc(N)n3)C(=O)N2C(C(=O)[O-])=C1C[N+]1(CCNC(=O)C(=O)c2ccc(O)c(O)c2Cl)CCCC1.[Na+]"
system_name = "A. baumannii JMI7"
measured_value = 0.25

[[record]]
compound = "C[C@@H]1S[C@@H]2[C@H](NC(=O)/C(=N\\OC(C)(C)C(=O)O)c3csc(N)n3)C(=O)N2C(C(=O)[O-])=C1C[N+]12CCC(Cn3cnc4cc(O)c(O)cc4c3=O)(CC1)C2"
system_name = "A. baumannii JMI7"
measured_value = 0.5

[[record]]
compound = "C[C@@H]1S[C@@H]2[C@H](NC(=O)/C(=N\\OC(C)(C)C(=O)[O-])c3csc(N)n3)C(=O)N2C(C(=O)O)=C1C[N+]12CCC(CNC(=O)/C(=N\\O)c3cc(O)c(O)c(F)c3)(CC1)CC2"
system_name = "A. baumannii JMI7"
measured_value = 1

[[record]]
compound = "CC[N+](CC)(CCN1C(=O)c2ccc(O)c(O)c2C1=O)CC1=C(C(=O)O)N2C(=O)[C@@H](NC(=O)/C(=N\\OC(C)(C)C(=O)[O-])c3csc(N)n3)[C@H]2S[C@H]1C"
system_name = "A. baumannii JMI7"
measured_value = 0.5


Source: patent US10174053B2
